Target: hVR1 (Homo sapiens, UniProt Q8NER1)
Sequence (Q8NER1 whole entry): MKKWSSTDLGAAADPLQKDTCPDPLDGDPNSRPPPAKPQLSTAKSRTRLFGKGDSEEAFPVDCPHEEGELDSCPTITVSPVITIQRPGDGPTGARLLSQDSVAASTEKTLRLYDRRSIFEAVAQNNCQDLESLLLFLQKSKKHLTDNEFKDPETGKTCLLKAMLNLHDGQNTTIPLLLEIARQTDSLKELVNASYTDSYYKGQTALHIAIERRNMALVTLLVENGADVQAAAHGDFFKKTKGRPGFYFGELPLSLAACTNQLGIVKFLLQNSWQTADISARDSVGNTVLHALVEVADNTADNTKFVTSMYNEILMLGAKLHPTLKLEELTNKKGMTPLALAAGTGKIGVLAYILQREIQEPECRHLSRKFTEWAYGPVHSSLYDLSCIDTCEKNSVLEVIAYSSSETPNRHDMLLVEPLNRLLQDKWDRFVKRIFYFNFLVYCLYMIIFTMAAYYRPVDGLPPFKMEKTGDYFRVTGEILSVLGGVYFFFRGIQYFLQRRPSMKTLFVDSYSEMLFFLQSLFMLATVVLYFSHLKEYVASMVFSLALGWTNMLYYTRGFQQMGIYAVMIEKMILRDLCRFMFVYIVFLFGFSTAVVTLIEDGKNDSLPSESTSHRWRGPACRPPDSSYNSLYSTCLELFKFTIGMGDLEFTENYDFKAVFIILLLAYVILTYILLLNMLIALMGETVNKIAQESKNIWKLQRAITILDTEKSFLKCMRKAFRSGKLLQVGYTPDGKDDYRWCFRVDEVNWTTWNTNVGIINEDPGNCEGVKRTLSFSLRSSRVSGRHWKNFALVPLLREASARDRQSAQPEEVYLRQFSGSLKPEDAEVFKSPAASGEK
Assay: Human VR1 (hVR1) Functional Assay (FLIPR intracellular calcium, capsaicin challenge)
Conditions: capsaicin 0.030 μM; HEK293 cells expressing hVR1
pIC50: −log10 of the molar value.
measured metric: pIC50

1 = CNS(=O)(=O)c1ccccc1-c1ccc2[nH]c(CCc3cccc(C(F)(F)F)c3)nc2c1
2 = CC(=O)c1ccccc1-c1ccc2[nH]c(/C=C/c3ccc(SC(F)(F)F)cc3)nc2c1
Given 1 and given 2 , which shows the smaller recorded pIC50? Answer = label. 2
(2: 6.70, 1: 7.48)

###

Biological target: hVR1 (Homo sapiens)
Construct: expressed in transfected cells; host or cells: HEK293
Assay: Human VR1 (hVR1) Functional Assay (FLIPR intracellular calcium, capsaicin challenge)
Type: cell-based
Details: test concentration 1 μM; capsaicin 0.030 μM; HEK293 cells expressing hVR1
measured metric: inhibition at 1 µM (%)

1 = NS(=O)(=O)c1ccccc1-c1ccc2[nH]c(CCc3cccc(C(F)(F)F)c3)nc2c1 [Cpd 175]
2 = O=C(Nc1ccccc1-c1ccc2[nH]c(/C=C/c3ccc(C(F)(F)F)cc3)nc2c1)C(F)(F)F [Cpd 458]
3 = Oc1cccc(-c2cc3nc(/C=C/c4ccc(C(F)(F)F)cc4)[nH]c3cc2F)c1 [Cpd 60]
4 = Oc1ccccc1-c1ccc2[nH]c(/C=C/c3ccc(C(F)(F)F)cc3)nc2c1 [Cpd 14]
Arrange the 4 compounds by rising inhibition at 1 µM, starting with the smallest. # the answer lists labels in the order requested 3, 2, 4, 1

A = CS(=O)(=O)Nc1ccccc1-c1ccc2[nH]c(/C=C/c3ccc4ccccc4c3)nc2c1 [Cpd 415]
B = CN(C)Cc1ccccc1-c1ccc2[nH]c(/C=C/c3ccc(C(F)(F)F)cc3)nc2c1 [Cpd 483]
Identify the entry with the larger inhibition at 1 µM. Options: A and B Answer = label. A
(A: 95%, B: 21%)

###

Biological target: hVR1 (Homo sapiens)
Construct: expressed in transfected cells; host or cells: HEK293
Experiment: Human VR1 (hVR1) Functional Assay (FLIPR intracellular calcium, capsaicin challenge)
Type: cell-based
Details: test concentration 1 μM; capsaicin 0.030 μM; HEK293 cells expressing hVR1
measured metric: inhibition at 1 µM (%)

molecule="CS(=O)(=O)Nc1ccccc1-c1ccc2[nH]c(C3CC3c3ccc(C(F)(F)F)cc3)nc2c1 (stereo not shown) [Cpd 467]" assay_result=86
molecule="NS(=O)(=O)c1ccccc1-c1ccc2[nH]c(/C=C/c3ccc(C(F)(F)F)c(F)c3)nc2c1 [Cpd 423]" assay_result=99
molecule="CC(C)(C)c1ccc(/C=C/c2nc3cc(-c4ccccc4CO)ccc3[nH]2)cc1 [Cpd 12]" assay_result=100
molecule="NS(=O)(=O)c1ccccc1-c1ccc2[nH]c(CCc3cc(F)c(F)cc3F)nc2c1 [Cpd 385]" assay_result=97

###

Tested on: male Sprague-Dawley rats
Experiment: Chemically-Induced Models of Inflammatory Pain (CFA, thermal hyperalgesia, radiant heat)
Format: in vivo
Conditions: 5 h, rat, 10 mg/kg oral, maximum during 300 min test, read-out: % Reversal (maximal percent reversal of hypersensitivity)
measured metric: inhibition in vivo at 10 mg/kg (%)
// note: answer is a bare numeric in %

Examples with their reported inhibition in vivo at 10 mg/kg follow.
compound="CNS(=O)(=O)c1ccccc1-c1ccc2[nH]c(/C=C/c3ccc(C(F)(F)F)cc3)nc2c1 [Cpd 310]" unit_annotation=% assay_result=23
compound="NS(=O)(=O)c1ccccc1-c1ccc2[nH]c(/C=C/c3ccc(C(F)(F)F)cc3)nc2c1 [Cpd 70]" unit_annotation=% assay_result=76
compound="CC(C)(O)c1ccccc1-c1ccc2[nH]c(/C=C/c3ccc(S(=O)(=O)C(F)(F)F)cc3)nc2c1 [Cpd 47]" unit_annotation=% assay_result=58

// field: inhibition in vivo at 10 mg/kg; key: CC(C)(O)c1ccccc1-c1ccc2[nH]c(/C=C/c3ccc(Cl)cc3)nc2c1 [Cpd 78] ; value = 19
